assay: Inhibition of human AlkB using fluorescent labeled DNA substrate (TTCmTTTTTTTTTTTT)
recorded-endpoint: IC50 (µM)

[
  {
    "line-notation": "O=C(O)c1cccc(C(=O)O)n1",
    "recorded-number": 64
  },
  {
    "line-notation": "O=C(O)c1cccnc1C(=O)O",
    "recorded-number": 479
  },
  {
    "line-notation": "O=C(O)c1ccc(C(=O)O)nc1",
    "recorded-number": 193
  },
  {
    "line-notation": "O=C(O)c1ccnc(C(=O)O)c1",
    "recorded-number": 84
  }
]

* * *

test system: CCRF-CEM; assay: Cytotoxicity against human CCRF-CEM cells assessed as reduction in cell viability incubated for 48 hrs
As shown below, each of these compounds has a reported IC50 value.

[
  {
    "compound": "O=C(O)CSC(O)C(=O)c1ccccc1 (configuration not stated)",
    "tested-on": "CCRF-CEM",
    "IC50": "1380 nM"
  },
  {
    "compound": "O=C1CC(NCc2ccco2)C(=O)NN1 (configuration not stated)",
    "tested-on": "CCRF-CEM",
    "IC50": "1380 nM"
  }
]

The reported numbers originate from ChEMBL document CHEMBL5226352.
